Taken from patent US20240124434A1.

Answer each item with its documented IC50.
target: CYP2B6 (Homo sapiens (Human), UniProt P20813); test: CYP inhibition in human liver microsomes; conditions: read-out: CYP-2B6; human liver microsomes; probe substrate bupropion
Sequence (P20813 whole entry): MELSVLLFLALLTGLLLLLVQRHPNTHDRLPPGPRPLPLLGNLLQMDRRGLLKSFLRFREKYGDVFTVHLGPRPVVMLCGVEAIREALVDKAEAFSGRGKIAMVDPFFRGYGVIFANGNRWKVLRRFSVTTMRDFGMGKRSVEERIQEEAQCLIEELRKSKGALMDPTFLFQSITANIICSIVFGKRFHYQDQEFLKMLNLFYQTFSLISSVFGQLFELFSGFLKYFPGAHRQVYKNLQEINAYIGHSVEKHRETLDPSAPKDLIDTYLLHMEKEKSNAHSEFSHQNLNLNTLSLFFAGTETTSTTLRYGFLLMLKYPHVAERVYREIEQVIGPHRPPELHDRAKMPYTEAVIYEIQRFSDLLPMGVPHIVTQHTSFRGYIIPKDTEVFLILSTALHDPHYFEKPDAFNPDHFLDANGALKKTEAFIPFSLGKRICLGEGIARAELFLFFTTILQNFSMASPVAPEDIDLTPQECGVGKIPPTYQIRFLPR
Just the number in µM, nothing appended.

In: Given the compound C[C@H](c1ccc(C(F)(F)F)cc1C(F)(F)F)n1cc(NC(=O)c2nnc(-c3ccccn3)s2)cn1 [Compound 123] , what is its reported IC50?
Out: 42.9

In: Dear colleague, I am looking for the recorded IC50 of the following compound: Cc1nn([C@H](C)c2ccc(C(F)(F)F)cc2C(F)(F)F)cc1NC(=O)c1cc(-c2ccccn2)on1 [Compound 99]
Out: 4.8

In: Sample C[C@H](c1ccc(C(F)(F)F)cc1C(F)(F)F)n1cc(NC(=O)c2cn(-c3ccccn3)nn2)cn1 [Compound 121] — what was its IC50?
Out: 23.6
